Reported growth values for a set of compounds
tested on: HCC-2998 colon; assay: NCI-60 one-dose screen, 48 h (100 = growth as untreated, 0 = no growth, -100 = all killed); details: 10 µM unless noted
Compounds without any hit were thinned out: in the full panel of roughly 83,000, 20% have a hit.
Express your answer in %, writing the number without its unit.

Known results for compounds:
1) Fc1ccc(-c2cc3nc(C(Cl)Cl)nc(-c4ccc(F)cc4)n3n2)cc1 ... -45.8
2) O=C(CSc1nc2ccccc2c(=O)n1-c1ccccc1)Nc1cccc(C(=O)/C=C/c2ccccc2Cl)c1 ... 108
3) NC(N)=Nc1ccc(Oc2cccc(NC(N)=Nc3ccc(Cl)c(C(F)(F)F)c3)c2)cc1 ... 66.2

Fill in: growth of COc1ccc2c(c1)c(CC(=O)[Se]CC#N)c(C)n2C(=O)c1ccc(Cl)cc1 is ___ -4.68

Queued: NS(=O)(=O)c1ccc(-n2cc(-c3cccc(NC(=O)c4ccc(N5CCOCC5)c(C(F)(F)F)c4)c3)nn2)cc1 66

---

system: OVCAR-3 ovarian; assay: NCI-60 one-dose screen, 48 h (100 = growth as untreated, 0 = no growth, -100 = all killed); settings: 10 µM unless noted
This is part of a sample that, as a whole, favours compounds with a hit. Of some 83,000 tested, about 20% had one in any assay.
Reported growth values for a set of compounds
Express your answer in %, writing the number without its unit.

1) CC(=O)Nc1cccc(Nc2nc(N[C@H](C)c3ccccc3)c3ccccc3n2)c1 ... 55.9
2) COc1cc(-c2nn(C(C)(C)C)cc2-c2ccnc(NCCCNS(=O)(=O)c3cccc(F)c3)n2)ccc1Cl ... 85
3) NC(N)=Nc1ccc(Oc2cccc(NC(N)=Nc3ccc(I)cc3F)c2)cc1 ... 75.7
4) CN1CCN(c2ccc(/C=N/Nc3nc4ccccc4c(=O)n3-c3ccccc3)cc2)CC1 ... 104

Fill in: growth of CS(=O)(=O)Nc1cc(-c2ccc3ncc(C#N)c(N[C@H](CO)c4ccccc4)c3c2)cnc1Cl is ___ 24

Queued: O=C(NNc1nc2cc(F)ccc2n2c(CN3CCCC3)ccc12)c1cnccn1 4.58

Queued: CN1c2ccccc2Sc2cc(C=C(C#N)C#N)ccc21 106

Queued: Cc1ccc(-c2cc3nc(C(Cl)Cl)nc(-c4cccs4)n3n2)cc1 20.3

Queued: CNC(=O)c1cc(-n2ccc3cc(NC(=O)Nc4ccc(N5CCOCC5)c(C(F)(F)F)c4)ccc32)ccn1 76.4

Queued: COC(=O)C1(C)CCC[C@]2(C)[C@H]3C[C@H]4C(C(C)C)=C[C@]3(CC[C@@H]12)[C@H]1[C@@H]4[C@@H](OC(=O)c2ccco2)CC[C@@H]1OC(=O)c1ccco1 (stereo partly specified) 123

Queued: C[C@@H](Nc1ncnc2ccc(-c3cnc(Cl)c(NS(C)(=O)=O)c3)cc12)c1ccccc1 44.6

---

test system: MDA-MB-231 breast; assay: NCI-60 one-dose screen, 48 h; conditions: 10 µM unless noted
Compounds without any hit were thinned out: in the full panel of roughly 83,000, 20% have a hit. Activity calls are given as the source filed them. How the source made its calls: active means growth percent below 10; inactive means the rest.
Classes to choose from: active, inactive

Solved entries (count: 2):
1. COc1c(N2CC3CCCNC3C2)c(F)cc2c(=O)c(C(=O)N/N=C/c3ccc4c(c3)OCO4)cn(C3CC3)c12 (stereo not drawn) ... inactive
2. Nc1ncc(-c2ccc3ncnc(N4CCc5cc(F)c(F)cc54)c3c2)cn1 ... inactive

Now look at this one.
Call for entry COC[C@]12CCC(C)(C)C[C@H]1C1=CC[C@@H]3[C@@]4(C)CCCNC(C)(C)[C@@H]4CC[C@@]3(C)[C@]1(C)CC2 : active
